Source: patent US20060089371A1

Endpoint name: melting point (°C)

{"Compound": "CN(C)CCOc1cccc(C[C@H](Nc2cc(-c3ccc(OCc4ccccc4)cc3)ncn2)C(=O)O)c1 [Example 4-1]", "Endpoint name": "melting point", "Observed result": 143.1}
{"Compound": "O=C(O)C(Cc1cccc(O)c1)Nc1cc(-c2ccc(OCc3ccccc3)cc2)ncn1 (stereo not drawn) [Example 2-30]", "Endpoint name": "melting point", "Observed result": 169}

----------
Target under test: IP receptor (Homo sapiens)
Construct: one million cells in 160 μl aliquot of cell suspension were put in a well of 96 well plate
Sequence (P43119 whole entry): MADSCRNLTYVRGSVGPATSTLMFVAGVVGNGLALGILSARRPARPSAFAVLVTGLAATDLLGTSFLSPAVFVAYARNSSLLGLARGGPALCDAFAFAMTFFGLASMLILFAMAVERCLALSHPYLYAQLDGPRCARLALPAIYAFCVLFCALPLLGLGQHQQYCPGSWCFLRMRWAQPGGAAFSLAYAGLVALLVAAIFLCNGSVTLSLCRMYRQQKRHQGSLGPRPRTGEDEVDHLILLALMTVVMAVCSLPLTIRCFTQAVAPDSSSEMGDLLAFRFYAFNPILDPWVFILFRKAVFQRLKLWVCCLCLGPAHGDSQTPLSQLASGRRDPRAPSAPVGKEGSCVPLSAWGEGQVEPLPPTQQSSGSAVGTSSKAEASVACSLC
Run description: IP receptor binding/cAMP in HEL cells ([3H]-iloprost binding, Assay 1; iloprost-induced cAMP production, Assay 2)
Test parameters: compounds of about 40 to 90% purity, read-out: In vitro activity grade (IC50 class)
pIC50: −log10 of the molar value.
Below, each entry is listed with its recorded pIC50.

{"Compound": "O=C(O)C(Cc1ccccc1)Nc1cc(-c2ccc(Oc3ncc(C(F)(F)F)cc3Cl)cc2)ncn1 (centres unmarked)", "pIC50": "< 6.00"}
{"Compound": "CCCCC(Nc1cc(-c2ccc(OCC3CC3)c(F)c2)ncn1)C(=O)O (centres unmarked)", "pIC50": "6.00 to 7.00"}
{"Compound": "CC(C)CC(Nc1cc(-c2ccc(OCc3ccccc3)cc2)ncn1)C(=O)O (centres unmarked)", "pIC50": "6.00 to 7.00"}
{"Compound": "O=C(O)[C@H](Cc1ccccc1)Nc1cc(-c2ccc(/C=C\\c3ccccc3)cc2)ncn1", "pIC50": "> 7.00"}
{"Compound": "O=C(O)C(Cc1c[nH]c2ccccc12)Nc1cc(-c2ccc(OCc3ccccc3)cc2)ncn1 (centres unmarked)", "pIC50": "> 7.00"}

Task: Give the reported pIC50 for O=C(O)C(Cc1ccccc1)Nc1cc(-c2ccc(OCC3CC3)c(F)c2)ncn1 (centres unmarked) (system: IP receptor (Homo sapiens)).
Output: > 7.00

Task: Try this compound next: O=C(O)C(Cc1ccccc1)Nc1cccc(-c2ccc(OCc3ccccc3F)cc2)c1 (centres unmarked)
Output: > 7.00

Task: Now consider O=C(O)C(Cc1ccccc1)Nc1cc(-c2ccc(NS(=O)(=O)c3ccc(F)cc3)cc2)ncn1 (centres unmarked) .
Output: < 6.00

Task: Can you check O=C(O)C(Cc1ccccc1)Nc1cc(-c2ccc(CN3CCc4ccccc4C3)cc2)ncn1 (centres unmarked) next?
Output: < 6.00

Task: Now consider O=C(O)[C@H](Cc1ccccc1)Nc1cc(-c2ccc(OCc3ccccc3)nc2)ncn1 .
Output: > 7.00
